# assay_info: Pharmacokinetic study, oral and intravenous administration in mice
# Parameters: species or system ICR mice
# condition_parameters: mouse, in vivo; ICR male mice, intravenous administration, 5 mg/Kg; read-out: Area under plasma concentration-time curve AUC0-last
measure: AUC(0-t) (ng·h/mL)
Give just the numeric value; ng·h/mL need not be written.

Lookup: # get_value(readout='AUC(0-t)', item= COCc1cc(C(=O)Nc2cc([C@H]3CC[C@@H](OC(=O)NC(C)C)C3)[nH]n2)n(C)n1 [PF-07104091, reference compound] )
Found: 1640

###

# assay_info: Pharmacokinetic study, oral and intravenous administration in mice
# Parameters: species or system ICR mice
# condition_parameters: mouse, in vivo; ICR male mice, oral 30 mg/Kg vs intravenous 5 mg/Kg; read-out: Bioavailability F
measure: bioavailability

Lookup: # query: bioavailability of entry COCc1cc(C(=O)Nc2cc([C@H]3CC[C@@H](OC(=O)NC(C)C)C3)[nH]n2)n(C)n1 [PF-07104091, reference compound]
Found: 76.2%

###

# target_system: CDK2/cyclin E1 (Homo sapiens, UniProt P24941)
# assay_info: In vitro CDK2/cyclinE enzyme activity assay (TR-FRET)
# condition_parameters: CDK2/cyclin E1, 1 mM ATP, 120 min at 25 °C
Structures can show the parent of a compound that is named as a salt.
measure: IC50 (nM)
Answer with a number only, understood to be in nM.

Lookup: For the molecule shown here, C=NOCc1nn2ccnc(Nc3cc([C@H]4CC[C@@H](OC(=O)NC(C)C)C4)[nH]n3)c2c1F [Compound 4] , give the reported IC50.
Found: 7.6

Lookup: Entry CONCc1nn2ccnc(Nc3cc([C@H]4CC[C@@H](OC(=O)NC(C)C)C4)[nH]n3)c2c1C [Formate salt of compound 1] : reported IC50 = ?
Found: 3.8

Lookup: Item CON(C)Cc1nn2ccnc(Nc3cc([C@H]4CC[C@@H](OC(=O)NC(C)C)C4)[nH]n3)c2c1C [Formate salt of compound 2] has what recorded IC50?
Found: 4.1

Lookup: # lookup: IC50 of CNOCc1nn2ccnc(Nc3cc([C@H]4CC[C@@H](OC(=O)NC(C)C)C4)[nH]n3)c2c1F [Hydrochloride salt of Compound 7]
Found: 9.5

Lookup: Request the reported IC50 associated with CNOCc1nn2ccnc(Nc3cc([C@H]4CC[C@@H](OC(=O)NC(C)C)C4)[nH]n3)c2c1C [Hydrochloride salt of compound 3]
Found: 4.2

Lookup: Given CONCc1nn2ccnc(Nc3cc([C@H]4CC[C@@H](OC(=O)NC(C)C)C4)[nH]n3)c2c1F [Compound 5] , state its recorded IC50.
Found: 6.8

Lookup: So what does the record say about IC50 for CON(C)Cc1nn2ccnc(Nc3cc([C@H]4CC[C@@H](OC(=O)NC(C)C)C4)[nH]n3)c2c1F [Compound 6] ?
Found: 7.4

###

# assay_info: Pharmacokinetic study, oral and intravenous administration in mice
# Design: species or system ICR mice
# condition_parameters: mouse, in vivo; ICR male mice, intravenous administration, 5 mg/Kg; read-out: Apparent volume of distribution Vdss
measure: Vd (L/kg)
# value in L/kg; strip the unit string

Lookup: Look at this compound and give its reported Vd. COCc1cc(C(=O)Nc2cc([C@H]3CC[C@@H](OC(=O)NC(C)C)C3)[nH]n2)n(C)n1 [PF-07104091, reference compound]
Found: 11.8
